conditions: in n-propyl acetate, 308.15 K
Outcome measure: solubility (mole fraction)

Exam item: State the recorded solubility (mole fraction) for this entry: Cc1c(N)cccc1C(=O)O
Marked response: 0.00176

----------
details: in isopropanol, 323.15 K
Outcome measure: solubility (mole fraction)
// no unit string in output, number only

Exam item: Form field: reported solubility (mole fraction) of Cc1c(N)cccc1C(=O)O
Marked response: 0.00991

----------
details: in sec-butanol, 288.15 K
Outcome measure: solubility (mole fraction)
# answer = number (no unit)

Exam item: Quick check: solubility (mole fraction) of Cc1c(N)cccc1C(=O)O ?
Marked response: 0.00178

----------
conditions: in isobutanol, 308.15 K
Outcome measure: solubility (mole fraction)

Exam item: Name the recorded solubility (mole fraction) for Cc1c(N)cccc1C(=O)O .
Marked response: 0.00322

----------
settings: in methanol, 308.15 K
Outcome measure: solubility (mole fraction)
Would you mind answering with just the numeric figure?

Exam item: # query: solubility (mole fraction) of entry Cc1c(N)cccc1C(=O)O
Marked response: 0.00979

----------
conditions: in methyl acetate, 303.15 K
Outcome measure: solubility (mole fraction)
Note: the reply should be a number with no unit written.

Exam item: I'd like to know its solubility (mole fraction). The compound in question is Cc1c(N)cccc1C(=O)O
Marked response: 0.0024

----------
conditions: in n-propanol, 328.15 K
Outcome measure: solubility (mole fraction)
Returns: the value as a bare number; no unit string appended.

Exam item: For the compound Cc1c(N)cccc1C(=O)O , what solubility (mole fraction) is on record?
Marked response: 0.0123

----------
settings: in methyl acetate, 323.15 K
Outcome measure: solubility (mole fraction)
Give the figure by itself; no unit, no explanation.

Exam item: What does the record list as solubility (mole fraction) for Cc1c(N)cccc1C(=O)O ?
Marked response: 0.00514

----------
conditions: in n-propanol, 298.15 K
Outcome measure: solubility (mole fraction)
Could you keep your reply to the number by itself?

Exam item: # get_value(readout='solubility (mole fraction)', item= Cc1c(N)cccc1C(=O)O )
Marked response: 0.00341

----------
details: in methanol, 303.15 K
Outcome measure: solubility (mole fraction)
In your answer, state the number alone without any accompanying words.

Exam item: Field request: solubility (mole fraction) | item: Cc1c(N)cccc1C(=O)O
Marked response: 0.00844

----------
settings: in ethyl acetate, 298.15 K
Outcome measure: solubility (mole fraction)
// no unit, no text: just the number

Exam item: Reported solubility (mole fraction) for Cc1c(N)cccc1C(=O)O : what is it?
Marked response: 0.00135

----------
settings: in n-butanol, 303.15 K
Outcome measure: solubility (mole fraction)
Give only the figure.

Exam item: Look up solubility (mole fraction) for this molecule: Cc1c(N)cccc1C(=O)O
Marked response: 0.00442

----------
settings: in methyl acetate, 308.15 K
Outcome measure: solubility (mole fraction)
# print the numeric value only

Exam item: Data request, read-out solubility (mole fraction), for Cc1c(N)cccc1C(=O)O
Marked response: 0.00292

----------
conditions: in methanol, 298.15 K
Outcome measure: solubility (mole fraction)

Exam item: Recorded solubility (mole fraction) for Cc1c(N)cccc1C(=O)O , please?
Marked response: 0.00682

----------
conditions: in methyl acetate, 288.15 K
Outcome measure: solubility (mole fraction)
Field format: numeric only.

Exam item: Param item = Cc1c(N)cccc1C(=O)O ; retrieve measured solubility (mole fraction).
Marked response: 0.000975

----------
settings: in ethyl acetate, 303.15 K
Outcome measure: solubility (mole fraction)

Exam item: Reported solubility (mole fraction) for Cc1c(N)cccc1C(=O)O : what is it?
Marked response: 0.00173

----------
details: in ethyl acetate, 313.15 K
Outcome measure: solubility (mole fraction)
// no unit, no text: just the number

Exam item: Given Cc1c(N)cccc1C(=O)O , state its recorded solubility (mole fraction).
Marked response: 0.00283

----------
conditions: in acetonitrile, 303.15 K
Outcome measure: solubility (mole fraction)
// no unit, no text: just the number

Exam item: Need solubility (mole fraction), item Cc1c(N)cccc1C(=O)O
Marked response: 0.000986

----------
settings: in n-butanol, 318.15 K
Outcome measure: solubility (mole fraction)
API note: the answer field is a bare number with no unit suffix.

Exam item: Consider the compound shown here: Cc1c(N)cccc1C(=O)O What is its recorded solubility (mole fraction)?
Marked response: 0.0079

----------
details: in water, 318.15 K
Outcome measure: solubility (mole fraction)
Lab note: record just the number, no unit beside it.

Exam item: Requested field: solubility (mole fraction). Item: Cc1c(N)cccc1C(=O)O
Marked response: 0.000887

----------
settings: in acetonitrile, 328.15 K
Outcome measure: solubility (mole fraction)
Output: the number by itself.

Exam item: What measured solubility (mole fraction) goes with Cc1c(N)cccc1C(=O)O ?
Marked response: 0.00307

----------
conditions: in sec-butanol, 328.15 K
Outcome measure: solubility (mole fraction)
# output: bare number, no unit

Exam item: Bench note: what solubility (mole fraction) did Cc1c(N)cccc1C(=O)O show?
Marked response: 0.0138

----------
details: in n-propanol, 288.15 K
Outcome measure: solubility (mole fraction)
// return a plain number; no unit text

Exam item: Given the entry Cc1c(N)cccc1C(=O)O , report its measured solubility (mole fraction).
Marked response: 0.00245

----------
conditions: in methanol, 323.15 K
Outcome measure: solubility (mole fraction)
Lab note: record the figure alone, no unit after it.

Exam item: Which solubility (mole fraction) value belongs to Cc1c(N)cccc1C(=O)O ?
Marked response: 0.0159

----------
conditions: in isopropanol, 313.15 K
Outcome measure: solubility (mole fraction)
Just the number, please, no unit after it.

Exam item: Tell me the measured solubility (mole fraction) of Cc1c(N)cccc1C(=O)O , please.
Marked response: 0.00629

----------
details: in methyl acetate, 313.15 K
Outcome measure: solubility (mole fraction)
Format: numeric value only, no unit, no commentary.

Exam item: Need solubility (mole fraction), item Cc1c(N)cccc1C(=O)O
Marked response: 0.00347

----------
settings: in n-propanol, 303.15 K
Outcome measure: solubility (mole fraction)
The reply should be a number, written without any unit.

Exam item: So what does the record say about solubility (mole fraction) for Cc1c(N)cccc1C(=O)O ?
Marked response: 0.00444

----------
settings: in n-butanol, 328.15 K
Outcome measure: solubility (mole fraction)
Response field accepts a number only; no unit should be typed.

Exam item: Field request: solubility (mole fraction) | item: Cc1c(N)cccc1C(=O)O
Marked response: 0.0115

----------
conditions: in isopropanol, 288.15 K
Outcome measure: solubility (mole fraction)
Enter a number only.

Exam item: Reported solubility (mole fraction) for Cc1c(N)cccc1C(=O)O : what is it?
Marked response: 0.00196

----------
settings: in n-butanol, 298.15 K
Outcome measure: solubility (mole fraction)
Please state the value as a number alone, without comment.

Exam item: Please give the measured solubility (mole fraction) for this compound: Cc1c(N)cccc1C(=O)O
Marked response: 0.00333

----------
settings: in acetonitrile, 308.15 K
Outcome measure: solubility (mole fraction)
Give the figure by itself; no unit, no explanation.

Exam item: Suppose we examine the molecule Cc1c(N)cccc1C(=O)O ; what solubility (mole fraction) value has been reported?
Marked response: 0.00126

----------
details: in ethyl acetate, 308.15 K
Outcome measure: solubility (mole fraction)
A bare number is all that is needed in reply.

Exam item: Param item = Cc1c(N)cccc1C(=O)O ; retrieve measured solubility (mole fraction).
Marked response: 0.0022

----------
settings: in water, 308.15 K
Outcome measure: solubility (mole fraction)

Exam item: GET /values?readout=solubility (mole fraction)&item= Cc1c(N)cccc1C(=O)O
Marked response: 0.000718

----------
conditions: in n-propyl acetate, 313.15 K
Outcome measure: solubility (mole fraction)
Please give only the number in your answer, with no unit.

Exam item: # query: solubility (mole fraction) of entry Cc1c(N)cccc1C(=O)O
Marked response: 0.00225

----------
settings: in isopropanol, 293.15 K
Outcome measure: solubility (mole fraction)
Enter a number only.

Exam item: solubility (mole fraction) lookup needed for Cc1c(N)cccc1C(=O)O , thanks.
Marked response: 0.00228

----------
details: in ethanol, 323.15 K
Outcome measure: solubility (mole fraction)
The answer should be written as a number, with no unit following it.

Exam item: Field request: solubility (mole fraction) | item: Cc1c(N)cccc1C(=O)O
Marked response: 0.0124
